B1: ARL6IP1 (parent)
chain: YLDPSVLSGVSCFVMFLCLADYLV

Variants of: B1
Test: protein stability index of a GFP-peptide fusion (GPS, HEK-293T) (PSI 1-6); higher = more stable;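 note: lentivirally expressed fusions sorted by FACS into six bins by GFP to DsRed ratio, PSI derived from sequencing read proportions per bin multiplied by bin number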
Settings: c terminus: a fixed tail appended
MEASURED PROPERTY: protein stability index
Numbers only.

Value sought for every listed variant: protein stability index.
1. P4K
2. V6A

RESULT:
2.63
1.44

Below is a list of variants. For each, state its recorded protein stability index.
1. L2E
2. C12M
3. S11Y
4. P4L
5. C12W

RESULT:
1: 3.04; 2: 2.56; 3: 3.78; 4: 2.76; 5: 2.26
